Attribution: the supplement of paper PMC12764529

protocol.notes: folding stability dG unfold from chymotrypsin proteolysis; higher = more stable
Classification field: enter Fulfilled for folding stability dG unfold values not below 0.5 kcal/mol, Not fulfilled for values below it.

[[record]]
monomer_sequence = "SAGGEKRYLVRVRAYYRFEEGERELDLEVEVTSPEEAKELLEKIATRLRKLYPDRIRIEVEIRPLEESAGGS [r16_475_TrMRF]"
qualitative_label = "Fulfilled"

[[record]]
monomer_sequence = "SPIRIRIWNPKNNVPIDEIDIQPNEDGNYGIKIKFWMPGKQHEHTIPIPPGETADEFINDHGIRSIEIEPSA [r9_492_TrROS]"
qualitative_label = "Fulfilled"

[[record]]
monomer_sequence = "SAGGGVTLTVDVRSKSGGSPEKFTLTLPVAVDPAGSADLDAARAAVAAALPPEAEVLELSLLPPDVPASAGG [r13_504_JUSTAS]"
qualitative_label = "Not fulfilled"

[[record]]
monomer_sequence = "SAGGSAGGSAGGMKVIKIEDVEKVKAEAKKNGIKVTYKKENDGEIIAYIEKIPKSIKNKSAGGSAGGSAGGS [r10_218_JUSTAS]"
qualitative_label = "Not fulfilled"

[[record]]
monomer_sequence = "SAGGSAGGSAGGKLKPGQKVLVIELKVTKVKTKKDGKKEFEFEITRIEIVEVPEGAKILSAGGSAGGSAGGS [r10_826_TrROS_Hall]"
qualitative_label = "Fulfilled"

[[record]]
monomer_sequence = "SAGGMYVEVVIDNPDPDISPEELAEEVARELAPDPFEIKPVKIEPELIGGIPKVTILFEVDDPEAVEESAGG [r13_979_TrMRF]"
qualitative_label = "Fulfilled"

[[record]]
monomer_sequence = "SAGGSAGGSAGMSVSLTSTTVSLPPELLSPEEAARTEDAVVTTTTSTLPAVVDPATGTVTSAGGSAGGSAGG [r17_310_JUSTAS]"
qualitative_label = "Fulfilled"


---

protocol.notes: folding stability dG unfold from chymotrypsin proteolysis; higher = more stable
Classification field: enter satisfied for folding stability dG unfold values not below 3 kcal/mol, not satisfied for values below it.

[[record]]
monomer_sequence = "SAGGSAGGSKEVKTIKVEITITDKNGKKITVKAEIVYDKKTKKYYIKIRNKKTNKTYIIELKLSAGGSAGGS [r20_71_TrROS_Hall]"
qualitative_label = "satisfied"

[[record]]
monomer_sequence = "SAGGSAGGSAGGKKIHLFMPKEVAEKFAKELEKLGIDSKEVEIEFHEVDIPPSLPPELKSAGGSAGGSAGGS [r10_602_TrMRF]"
qualitative_label = "not satisfied"

[[record]]
monomer_sequence = "MKKVKVTITITVPEEDKEKVKELIEKLKEAVPNVKVTSVEFDEKTGKITIVVEMTEEELEELKKALKEALES [r1_443_TrROS_Hall]"
qualitative_label = "not satisfied"

[[record]]
monomer_sequence = "SAGGSKEKFLTIEHPDYVIKAYVDYPKEGKLRVRIEIYDKNGKLLKTIEVEAYSPEEVLEFLEKAASAGGSA [r2_82_TrMRF]"
qualitative_label = "satisfied"

[[record]]
monomer_sequence = "SAGMKTLTGPPEVLEELVEKALKENPNAKTVTIVDGDKSVTVPKDEEVEFLEPAPQPDGEPYVTIEILESAG [r5_130_JUSTAS]"
qualitative_label = "not satisfied"

[[record]]
monomer_sequence = "SAGGSAGGSAGGAEEIARKLAEETGKKVTIRIRLPNGEVYEIELDEPLEEIEGAEIVEIESAGGSAGGSAGG [r7_998_TrROS_Hall]"
qualitative_label = "not satisfied"

[[record]]
monomer_sequence = "SAGMLTLRVVLPKEEAEARARALAEELRRRLGLPPGAKIEVKVVEYDEETGEVVVEVTIEVELPPGVEPSAG [r5_537_TrROS_Hall]"
qualitative_label = "satisfied"

[[record]]
monomer_sequence = "SAGGMPKKITKLELLSETYDPLTNTYTVTVRATFDDGTEKVIELTLPRSEYEKLSKEEIKKRAIDLLLSAGG [r13_512_JUSTAS]"
qualitative_label = "satisfied"

[[record]]
monomer_sequence = "SAGGSAGGRKTRRLVLEVDDIPEGVSAEELTEEELRRLGLPPDARIRVVRRPDGRLLVVIEVRESAGGSAGG [r6_551_TrROS_Hall]"
qualitative_label = "not satisfied"

[[record]]
monomer_sequence = "SAGGSEDRYLVHVLVRFPDELRELYLEARSPEEVERSVRRAIEELYPERLEDVEVVVFARPVSEPLSAGGSA [r2_111_TrMRF]"
qualitative_label = "not satisfied"

[[record]]
monomer_sequence = "SAGGSAGGSKKPVLAKIAILNSGSPEVAEELAKRLAAELGLSPDEVKVELHVIPVTAPGELLFSAGGSAGGS [r12_1066_TrMRF]"
qualitative_label = "not satisfied"

[[record]]
monomer_sequence = "SMTIRVEGVPPGVTAEELAARLRAELEAAGYEVTSIKVTRRADGSLVVEIEVKPAPPPEPVEVVEEREEESA [r9_953_TrROS_Hall]"
qualitative_label = "satisfied"

[[record]]
monomer_sequence = "SAGGSAGGSKNMVMVEIPFEHKVKQPDPPDGKWRQHEHKPTIPYMIPPEDAEELLNSPALKKISAGGSAGGS [r12_1015_TrROS]"
qualitative_label = "not satisfied"

[[record]]
monomer_sequence = "SAGGSMKPAKKITFTFPDGRKAEIFFYPEEDTIELRIYFPETGTFVEIPVKSPEDLIETLKKLLAESAGGSA [r2_70_TrMRF]"
qualitative_label = "satisfied"

